Quick reference: IC50 of the listed items.
# measured_target: FGFR1 V561M (Homo sapiens, UniProt P11362, V561M)
# Construct: purchased Signalchem F04-13G
# Sequence (P11362 22-822 V561M): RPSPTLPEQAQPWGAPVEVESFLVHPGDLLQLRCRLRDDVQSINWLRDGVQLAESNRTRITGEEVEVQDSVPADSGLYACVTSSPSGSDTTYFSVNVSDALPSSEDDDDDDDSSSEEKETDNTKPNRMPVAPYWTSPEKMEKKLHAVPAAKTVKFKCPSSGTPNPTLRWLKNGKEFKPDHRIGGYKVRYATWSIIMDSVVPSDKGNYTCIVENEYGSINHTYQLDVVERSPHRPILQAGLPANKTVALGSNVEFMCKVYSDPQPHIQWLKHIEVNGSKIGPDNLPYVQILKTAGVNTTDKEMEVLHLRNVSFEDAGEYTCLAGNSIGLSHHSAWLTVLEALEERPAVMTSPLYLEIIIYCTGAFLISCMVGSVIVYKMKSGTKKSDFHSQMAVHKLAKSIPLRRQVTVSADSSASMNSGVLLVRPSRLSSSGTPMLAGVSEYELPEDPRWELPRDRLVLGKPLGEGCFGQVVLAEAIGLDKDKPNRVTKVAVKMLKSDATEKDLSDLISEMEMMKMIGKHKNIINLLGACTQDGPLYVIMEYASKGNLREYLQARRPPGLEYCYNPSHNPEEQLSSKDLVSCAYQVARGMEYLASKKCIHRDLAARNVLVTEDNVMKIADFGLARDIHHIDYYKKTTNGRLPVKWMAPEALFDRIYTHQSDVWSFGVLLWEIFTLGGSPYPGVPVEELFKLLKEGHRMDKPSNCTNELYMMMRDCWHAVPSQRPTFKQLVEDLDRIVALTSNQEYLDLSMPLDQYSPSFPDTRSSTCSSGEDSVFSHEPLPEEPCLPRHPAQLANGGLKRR
# experimental_details: Assay III: inhibitory activity against FGFR mutants (method of Assay I, different operator)
# Type: biochemical
# condition_label: Table 3; same method as Assay I, different experimental operator
Number in nM, nothing else.

// worked examples, IC50 included
* CCC(Oc1ccc2[nH]nc(C(=O)Nc3cnn(C)c3)c2c1)c1c(Cl)cncc1Cl (centres unmarked) | 3.4
* C[C@@H](Oc1ccc2[nH]nc(C(=O)Nc3cnn(C4CCN(C)C4)c3)c2c1)c1c(Cl)cncc1Cl (some centres unmarked) | 0.38

Which IC50 value belongs to C[C@@H](Oc1ccc2[nH]nc(C(=O)Nc3cnn(CC(C)(C)O)c3)c2c1)c1c(Cl)cncc1Cl ?
3.7

Quick check: IC50 of CCN1CC(n2cc(NC(=O)c3n[nH]c4ccc(O[C@H](C)c5c(Cl)cncc5Cl)cc34)cn2)C1 ?
0.93

Reported IC50 for C[C@@H](Oc1ccc2[nH]nc(C(=O)Nc3cnn(CCN4CCOCC4)c3)c2c1)c1c(Cl)cncc1Cl : what is it?
1.6

###

# measured_target: FGFR2 (Homo sapiens)
# Construct: purchased Carna 08-134
# Sequence (P21802 22-821): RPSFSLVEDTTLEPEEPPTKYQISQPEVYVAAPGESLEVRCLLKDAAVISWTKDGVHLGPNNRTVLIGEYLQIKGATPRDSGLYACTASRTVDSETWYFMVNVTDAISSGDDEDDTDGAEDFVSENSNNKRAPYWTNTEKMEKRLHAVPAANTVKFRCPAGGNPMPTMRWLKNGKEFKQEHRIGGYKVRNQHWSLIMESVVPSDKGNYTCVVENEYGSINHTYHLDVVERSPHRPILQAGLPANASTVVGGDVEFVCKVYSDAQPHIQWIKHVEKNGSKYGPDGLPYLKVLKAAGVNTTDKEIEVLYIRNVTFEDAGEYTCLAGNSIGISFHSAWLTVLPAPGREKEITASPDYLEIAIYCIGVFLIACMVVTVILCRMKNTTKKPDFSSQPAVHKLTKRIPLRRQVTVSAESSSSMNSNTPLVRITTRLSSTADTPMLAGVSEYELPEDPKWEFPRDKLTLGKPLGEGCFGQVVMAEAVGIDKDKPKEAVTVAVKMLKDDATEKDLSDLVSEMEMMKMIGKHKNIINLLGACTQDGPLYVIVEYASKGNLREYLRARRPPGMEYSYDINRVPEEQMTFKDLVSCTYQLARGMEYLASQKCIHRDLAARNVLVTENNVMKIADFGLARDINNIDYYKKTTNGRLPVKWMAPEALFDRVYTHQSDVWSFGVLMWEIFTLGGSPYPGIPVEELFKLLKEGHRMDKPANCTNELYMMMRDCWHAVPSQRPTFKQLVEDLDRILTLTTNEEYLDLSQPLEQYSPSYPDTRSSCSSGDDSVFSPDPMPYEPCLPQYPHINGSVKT
# experimental_details: Assay II: inhibitory activity against wild-type FGFR (HTRF KinEASE-TK)
# Type: biochemical
# condition_label: Table 2, ATP working concentration 50 μM, substrate TK 1 μM
// assign Satisfied if IC50 falls strictly below 50 nM, else Not satisfied (ties count as Not satisfied)

Use the examples below as a reference point.
• CC(Oc1ccc2[nH]nc(C(=O)Nc3cnn(C4CCN(C)CC4)c3)c2c1)c1c(Cl)cncc1Cl (stereo not shown) [Compound 14] = Satisfied
• CCN1CCN(c2ccc(NC(=O)c3n[nH]c4ccc(OC(C)c5c(Cl)cncc5Cl)cc34)cc2)CC1 (stereo not shown) [Compound 10] = Satisfied
• CC(Oc1ccc2[nH]nc(C(=O)Nc3cnn(C4CC(O)C4)c3)c2c1)c1c(Cl)cncc1Cl (stereo not shown) [Compound 12] = Satisfied
• CC(Oc1ccc2[nH]nc(C(=O)Nc3ccc(N4C[C@@H](C)N[C@@H](C)C4)nc3)c2c1)c1c(Cl)cncc1Cl (stereo partly shown) [Compound 8] = Not satisfied
• C[C@@H]1CN(c2ccc(NC(=O)c3n[nH]c4ccc(O[C@H](C)c5c(Cl)cncc5Cl)cc34)cc2)C[C@H](C)N1 [Compound 6] = Satisfied

Shifting focus to the compound that follows.
Could you please tell me whether IC50 recorded for C[C@@H](Oc1ccc2[nH]nc(C(=O)Nc3cnn(CCO)c3)c2c1)c1c(Cl)cncc1Cl [Compound 7] is less than 50 nM?
Satisfied

###

# measured_target: FGFR1 V561M (Homo sapiens, UniProt P11362, V561M)
# Construct: purchased Signalchem F04-13G
# experimental_details: Assay I: inhibitory activity against FGFR mutants (HTRF KinEASE-TK)
# Assay type: biochemical
# condition_label: Table 1; ATP working concentration 5 μM, substrate TK 1 μM
Label rule met when IC50 is strictly below 6 nM; at or above that, label rule not met.

Is the reported IC50 for CC(Oc1ccc2[nH]nc(C(=O)Nc3ccc(N4C[C@@H](C)N[C@@H](C)C4)cn3)c2c1)c1c(Cl)cncc1Cl (some centres unmarked) [Compound 16] strictly below 6 nM?
rule not met

Does CC(Oc1ccc2[nH]nc(C(=O)Nc3ccc(N4C[C@@H](C)N[C@@H](C)C4)c(F)c3)c2c1)c1c(Cl)cncc1Cl (some centres unmarked) [Compound 17] have IC50 strictly under 6 nM?
rule not met

Strictly below 6 nM: is that where IC50 of CCN1CCC(c2ccc(NC(=O)c3n[nH]c4ccc(OC(C)c5c(Cl)cncc5Cl)cc34)cc2)CC1 (centres unmarked) [Compound 18] sits?
rule met

Identify whether the compound CC(Oc1ccc2[nH]nc(C(=O)Nc3cnn(CCC#N)c3)c2c1)c1c(Cl)cncc1Cl (centres unmarked) [Compound 11] records IC50 below 6 nM.
rule met

hey, is IC50 for CC(Oc1ccc2[nH]nc(C(=O)Nc3ccc(N4C[C@@H](C)N[C@@H](C)C4)cc3)c2c1)c1c(Cl)cncc1Cl (some centres unmarked) [Compound 1] lower than 6 nM or not?
rule not met

Lab note: confirm whether the reported IC50 for this compound is below 6 nM, equality not counting. compound: CCn1cc(NC(=O)c2n[nH]c3ccc(OC(C)c4c(Cl)cncc4Cl)cc23)cn1 (centres unmarked) [Compound 20]
rule not met

Strictly below 6 nM: is that where IC50 of CC(Oc1ccc2[nH]nc(C(=O)Nc3cnn(C4CN(C)C4)c3)c2c1)c1c(Cl)cncc1Cl (centres unmarked) [Compound 21] sits?
rule met

For CC(Oc1ccc2[nH]nc(C(=O)Nc3cnn(CCC4(O)CC4)c3)c2c1)c1c(Cl)cncc1Cl (centres unmarked) [Compound 15] , is the recorded IC50 below the cut-off of 6 nM?
rule met

Input CC(Oc1ccc2[nH]nc(C(=O)Nc3cnn(C(C)CC#N)c3)c2c1)c1c(Cl)cncc1Cl (centres unmarked) [Compound 5] ; condition: IC50 strictly below 6 nM. Does it hold?
rule not met

For this compound, is IC50 lower than 6 nM? CC(Oc1ccc2[nH]nc(C(=O)Nc3cnn(C4CC(O)C4)c3)c2c1)c1c(Cl)cncc1Cl (centres unmarked) [Compound 12]
rule met

Find out if reported IC50 for C[C@@H](Oc1ccc2[nH]nc(C(=O)Nc3cnn(CCO)c3)c2c1)c1c(Cl)cncc1Cl [Compound 7] is less than 6 nM
rule met

###

# measured_target: VEGFR2 (Homo sapiens)
# Construct: purchased Carna 08-191
# Sequence (P35968 20-1356): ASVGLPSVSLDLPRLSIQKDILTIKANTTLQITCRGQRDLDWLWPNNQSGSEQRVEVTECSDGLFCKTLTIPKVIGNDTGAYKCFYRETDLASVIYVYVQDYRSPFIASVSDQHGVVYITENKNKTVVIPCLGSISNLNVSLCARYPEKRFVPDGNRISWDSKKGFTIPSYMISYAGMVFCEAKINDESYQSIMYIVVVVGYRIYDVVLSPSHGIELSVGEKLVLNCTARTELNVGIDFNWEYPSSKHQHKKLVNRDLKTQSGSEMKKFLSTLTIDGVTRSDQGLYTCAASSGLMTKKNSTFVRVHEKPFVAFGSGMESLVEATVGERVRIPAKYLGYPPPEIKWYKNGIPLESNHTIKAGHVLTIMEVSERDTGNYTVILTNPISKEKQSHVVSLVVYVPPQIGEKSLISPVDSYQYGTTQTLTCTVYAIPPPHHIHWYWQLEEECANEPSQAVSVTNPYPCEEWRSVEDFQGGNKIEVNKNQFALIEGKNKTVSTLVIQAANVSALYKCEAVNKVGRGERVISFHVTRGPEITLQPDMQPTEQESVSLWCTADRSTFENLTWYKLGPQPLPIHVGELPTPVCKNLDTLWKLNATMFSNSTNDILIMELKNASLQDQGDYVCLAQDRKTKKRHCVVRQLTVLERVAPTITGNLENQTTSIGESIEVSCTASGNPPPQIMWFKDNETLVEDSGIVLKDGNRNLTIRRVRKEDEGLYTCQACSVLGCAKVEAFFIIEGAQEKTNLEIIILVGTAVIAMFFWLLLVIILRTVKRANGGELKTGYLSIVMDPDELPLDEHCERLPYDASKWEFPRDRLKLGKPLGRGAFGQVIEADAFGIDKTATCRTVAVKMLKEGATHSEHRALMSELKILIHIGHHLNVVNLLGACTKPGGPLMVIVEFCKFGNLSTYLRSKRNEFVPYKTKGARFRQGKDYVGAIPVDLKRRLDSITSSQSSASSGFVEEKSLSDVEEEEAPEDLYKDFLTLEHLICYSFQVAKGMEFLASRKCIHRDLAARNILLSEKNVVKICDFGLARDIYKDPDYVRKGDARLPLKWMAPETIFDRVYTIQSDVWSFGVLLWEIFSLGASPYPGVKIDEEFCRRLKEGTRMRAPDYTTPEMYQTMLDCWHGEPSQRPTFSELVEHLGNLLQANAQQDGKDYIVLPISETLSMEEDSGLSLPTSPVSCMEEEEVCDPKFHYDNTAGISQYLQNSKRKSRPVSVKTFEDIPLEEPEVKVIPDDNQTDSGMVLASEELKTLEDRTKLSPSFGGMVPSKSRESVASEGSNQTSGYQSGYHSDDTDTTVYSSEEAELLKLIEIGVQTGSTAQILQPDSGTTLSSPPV
# experimental_details: Assay III: kinase inhibition (method of Assay I, different operator), VEGFR2
# Assay type: biochemical
# condition_label: Table 3; same method as Assay I, different experimental operator
quantity_kind: log10(IC50) (log10 of the value in nM)
Lab note - IC50 converted to log10 from values in nM.

• CCN1CCC(Cn2cc(NC(=O)c3n[nH]c4ccc(O[C@H](C)c5c(Cl)cncc5Cl)cc34)cn2)CC1 = 1.52
• CC(Oc1ccc2[nH]nc(C(=O)Nc3cnn(C(C)C)c3)c2c1)c1c(Cl)cncc1Cl (centres unmarked) = 2.41
• CC(Oc1ccc2[nH]nc(C(=O)Nc3cnn(CCCO)c3)c2c1)c1c(Cl)cncc1Cl (centres unmarked) = 2.16
• CC(Oc1ccc2[nH]nc(C(=O)Nc3ccc(CN4CCOCC4)cc3)c2c1)c1c(Cl)cncc1Cl (centres unmarked) = 2.86

For the compound C[C@@H](Oc1ccc2[nH]nc(C(=O)Nc3cnn(CC4CCCCN4C)c3)c2c1)c1c(Cl)cncc1Cl (some centres unmarked) , what log10(IC50) is on record?
1.79

# input compound: C[C@@H](Oc1ccc2[nH]nc(C(=O)Nc3cnn(Cc4ccncc4)c3)c2c1)c1c(Cl)cncc1Cl ; wanted: its log10(IC50)
2.18

So what's the measured log10(IC50) for this one? CC(Oc1ccc2[nH]nc(C(=O)Nc3cnn(C4CCC4)c3)c2c1)c1c(Cl)cncc1Cl (centres unmarked)
2.76

Can you look up the measured log10(IC50) of C[C@@H](O)Cn1cc(NC(=O)c2n[nH]c3ccc(O[C@H](C)c4c(Cl)cncc4Cl)cc23)cn1 for me?
2.00

Find the recorded log10(IC50) belonging to C[C@@H](Oc1ccc2[nH]nc(C(=O)Nc3cnn(Cc4cccnc4)c3)c2c1)c1c(Cl)cncc1Cl and report it.
2.04

May I ask what log10(IC50) has been recorded for C[C@@H](Oc1ccc2[nH]nc(C(=O)Nc3cnn(CCN(C)C)c3)c2c1)c1c(Cl)cncc1Cl ?
1.61

Entry CC(Oc1ccc2[nH]nc(C(=O)Nc3cnn(CC(=O)N(C)C)c3)c2c1)c1c(Cl)cncc1Cl (centres unmarked) : reported log10(IC50) = ?
2.30

Looking for the measured log10(IC50) of CCN1CC(Cn2cc(NC(=O)c3n[nH]c4ccc(O[C@H](C)c5c(Cl)cncc5Cl)cc34)cn2)C1 , can you help?
1.48

Item under review: C[C@@H](Oc1ccc2[nH]nc(C(=O)Nc3cnn(CC(C)(C)O)c3)c2c1)c1c(Cl)cncc1Cl . Reported log10(IC50)?
1.79

Which log10(IC50) value is on record for C[C@@H](Oc1ccc2[nH]nc(C(=O)Nc3cnn(CC4CCN(C)C4)c3)c2c1)c1c(Cl)cncc1Cl (some centres unmarked) ?
1.92

###

# measured_target: VEGFR2 (Homo sapiens)
# Construct: purchased Carna 08-191
# experimental_details: Assay I: kinase inhibition (HTRF KinEASE-TK), VEGFR2
# Assay type: biochemical
# condition_label: Table 1; ATP working concentration 5 μM, substrate TK 1 μM
quantity_kind: IC50 (nM)
Report the value in nM with no unit label.

Field: example entries. Status: answers known.
* CC(Oc1ccc2[nH]nc(C(=O)Nc3ccc(N4CCOCC4)nc3)c2c1)c1c(Cl)cncc1Cl (stereo not shown) [Compound 4] | 1590
* CC(Oc1ccc2[nH]nc(C(=O)Nc3ccc(N4CCN(C)CC4)cc3)c2c1)c1c(Cl)cncc1Cl (stereo not shown) [Compound 9] | 152
* CCN1CCC(c2ccc(NC(=O)c3n[nH]c4ccc(OC(C)c5c(Cl)cncc5Cl)cc34)cc2)CC1 (stereo not shown) [Compound 18] | 141
* CCN1CCN(c2ccc(NC(=O)c3n[nH]c4ccc(OC(C)c5c(Cl)cncc5Cl)cc34)cc2)CC1 (stereo not shown) [Compound 10] | 1390
* C[C@@H]1CN(c2ccc(NC(=O)c3n[nH]c4ccc(O[C@H](C)c5c(Cl)cncc5Cl)cc34)cc2)C[C@H](C)N1 [Compound 6] | 84.1

Now for the molecule whose IC50 we want.
Fill in the blank: the reported IC50 of CC(Oc1ccc2[nH]nc(C(=O)Nc3ccc(N4C[C@@H](C)N[C@@H](C)C4)c(F)c3)c2c1)c1c(Cl)cncc1Cl (stereo partly shown) [Compound 17] is ____.
173
